Tested on: Erythrocyte
Assay: Hemolytic activity in human RBC after 1 hr
Type: ADME, cell-based
Bridge positions count the residues as written; N and C are the ends. Square brackets hold non-standard residues; d marks the D form. Peptide text beside a SMILES is read from it. S5 = C=CCCC[C@](C)(N)C(=O)O
observed property: MHC (µM)
Numbers only, in µM.

Consider the molecule C[C@H](NC(=O)CNC(=O)[C@H](Cc1ccccc1)NC(=O)[C@]1(C)CCC/C=C\CCC[C@](C)(NC(=O)[C@H](Cc2ccccc2)NC(=O)CNC(=O)[C@H](C)NC(=O)[C@H](CCCCN)NC(=O)[C@H](CCCCN)NC(=O)[C@H](CCCCN)NC(=O)[C@H](CCCCN)NC(=O)[C@H](CCCCN)NC(=O)[C@@H](N)CCCCN)C(=O)N[C@@H](C)C(=O)N[C@@H](Cc2c[nH]c3ccccc23)C(=O)NCC(=O)N1)C(N)=O (H-KKKKKKAGF[S5]AWG[S5]FGA-NH2; staple (Z) 10-14) and give its measured MHC.
128

src = ChEMBL document CHEMBL4184195
